System: Plasmodium falciparum
Protocol Summary: GSK_TCMDC: Inhibition of Plasmodium falciparum 3D7 in whole red blood cells, using parasite LDH activity as an index of growth. Test compounds present at 2uM
Type: functional
Reported Endpoint: Inhibition (%)
Return type: number; implicit unit %.

Line Notation: Br.Cc1ccc(OCCCCON2C(=N)N=C(N)NC2(C)C)cc1C
Unit Symbol: %
Inhibition: 94

Line Notation: Cn1cnc(CCNC(=O)c2ccc(-c3cccc(-c4nc5cc(F)ccc5[nH]4)c3)cc2)c1
Unit Symbol: %
Inhibition: 100

Line Notation: Cc1ccc(Cn2nc(Cl)c(N3CCCNCC3)cc2=O)cc1NC(=O)Nc1ccc(-c2ccccc2)cc1.O=C(O)C(F)(F)F
Unit Symbol: %
Inhibition: 100

Let us examine a further case.
Using known records, supply Inhibition for `Br.N=C(N)Nc1nc(-c2cc(NC(=O)C(F)(F)F)cc([N+](=O)[O-])c2)cs1`
98

----------
Test system: Plasmodium falciparum
Protocol Summary: GSK_TCMDC: Inhibition of Plasmodium falciparum Dd2 in whole red blood cells, using parasite LDH activity as an index of growth. Test compounds present at 2uM
Type: functional
Reported Endpoint: Inhibition (%)
Return type: number; implicit unit %.

Line Notation: CCCCCCN1CCN(Cc2cccc(NC(=O)c3cc4ccccc4s3)c2)CC1.O=C(O)C(F)(F)F
Unit Symbol: %
Inhibition: 68

Line Notation: C=C1C[C@@H](n2cnc3c(NC(=O)c4ccccc4)ncnc32)[C@@H](F)[C@@H]1OC(c1ccccc1)(c1ccccc1)c1ccccc1
Unit Symbol: %
Inhibition: 97

Line Notation: O=S(=O)(c1ccc(NC(S)=NN=Cc2ccccn2)cc1)N1CCCCC1
Unit Symbol: %
Inhibition: 56

Let us examine a further case.
Using known records, supply Inhibition for `CC(C)CNCc1ccc(-c2ccc(CNC3CCN(Cc4ccccc4)CC3)cc2)cc1.O=C(O)C(F)(F)F`
96

----------
Tested on: Plasmodium falciparum
Protocol Summary: GSK_TCMDC: Inhibition of Plasmodium falciparum 3D7 in whole red blood cells, using parasite LDH activity as an index of growth. Test compounds present at 2uM
Type: functional
Reported Endpoint: Inhibition (%)
Return type: number; implicit unit %.

Take a look at these entries with their results.
Compound: Cc1ccc2c(c1C)NC(=O)C21NN=C(c2ccccc2)S1 (centres undefined)
Reported Result: 97

Compound: CCOc1cc2c(cc1OCC)C(c1cc(OC)c(O)cc1Cl)NCC2 (centres undefined)
Reported Result: 100

Compound: Cc1cccc2nc(-c3cccc(-c4ccc(C(=O)NCc5ccccc5S(C)(=O)=O)cc4)c3)[nH]c12
Reported Result: 100

Compound: O=C(Nc1ccc(Cl)cc1)c1ccc(CN2CCCN(Cc3ccsc3)CC2)cc1.O=C(O)C(F)(F)F
Reported Result: 88

Compound: Cn1cnc(CCNC(=O)c2ccc(-c3ccc(-c4nc5cc(F)ccc5[nH]4)cc3)cc2)c1
Reported Result: 92

Using known records, supply Inhibition for `CC(=O)c1c(C)[nH]c(C(=O)Nc2ccc(-c3nc4ccc(C)cc4s3)cc2)c1C`
92

Using known records, supply Inhibition for `Fc1ccc(Nc2ccnc3cc(-c4ccc(CN5CCOCC5)o4)ccc23)c(Cl)c1`
100

Using known records, supply Inhibition for CC1(CCN2CCC(c3c[nH]c4cnccc34)CC2)CCCc2c(Br)cccc2C1=O.Cl (centres undefined)
100

Using known records, supply Inhibition for `CC(=O)c1sc(NC(=O)Nc2ccc(C)cc2C)nc1C`
96

Using known records, supply Inhibition for `CN1CCN(c2ccnc3ccc(NC(=O)Nc4cccc5c(Br)cccc45)cc23)CC1.Cl`
100

Using known records, supply Inhibition for `O=C(Cc1c[nH]cn1)Nc1cccc(-c2ccc(-c3nc4ccccc4[nH]3)cc2)c1`
99
